Assign inhibition to each entry below.
Molecular target: Botulinum neurotoxin type A (Clostridium botulinum)
Experiment: BoNT/A light chain protease inhibitors, biochemical, multiplex microsphere flow cytometry, validation set (AID 588460)
Settings: at 10 µM, active compounds read high
Activity calls are given as the source filed them. No rule for the calls is given here.

1) COc1ccccc1NC(=O)C12CCC(C)(C(=O)C1)C2(C)C (stereo not drawn) = 0.8% (inactive)
2) CC(=O)O[C@H]1CC[C@H]2[C@@H]3CCc4cc(O)ccc4[C@H]3CC[C@]12C = -0.9% (inactive)
3) CCNC(=O)c1c(N)sc2c1CCCCC2 = -0.9% (inactive)
4) O=c1c(-c2ccc3c(c2)OCCO3)coc2cc(OC3OC(CO)C(O)C(O)C3O)ccc12 (stereo not drawn) = 0.1% (inactive)
5) CC(C)(C)C(=O)N1CCCC1C(=O)O (stereo not drawn) = -1.2% (inactive)

Value sought for every listed compound: inhibition.
1. CC1(C)CC(C(CC(=O)O)c2ccccc2)CCO1 (stereo not drawn)
2. OC12CCCCC1C(c1ccc3c(c1)OCO3)N(Cc1cccc(F)c1)CC2 (stereo not drawn)
3. c1ccc(Cn2nnc3cnccc32)cc1
4. COc1ccc(CCCC(=O)O)c(C)c1
5. CC1(C)CC(O)(CNCc2ccc3c(c2)OCO3)CCO1 (stereo not drawn)
6. CCC(CO)NCCNC(CC)CO (stereo not drawn)
7. COc1ccccc1C(=O)c1cc2ccc(O)cc2oc1=O

1. -0.2% (inactive)
2. -1.3% (inactive)
3. -0.8% (inactive)
4. 0.1% (inactive)
5. -0.9% (inactive)
6. 1.5% (inactive)
7. 0.1% (inactive)

Value sought for every listed compound: inhibition.
1. COc1cc(C(=O)NCCCCCC(=O)O)cc(OC)c1OC
2. O=c1c(-c2ccccc2)c(O)c2cccc3c2n1CCC3
3. CC(C)=CCCC1=CCC2C(=O)NNC(=O)C2C1 (stereo not drawn)
4. Cc1ccc(/C=N/Nc2nc(C(C)(C)C)cs2)o1
5. COc1ccc(NC(=S)NCCc2c[nH]c3ccccc23)cc1
6. CN1CCc2cccc3c2[C@H]1Cc1ccc(O)c(O)c1-3

["-0.4% (inactive)", "0.8% (inactive)", "-1% (inactive)", "-0.3% (inactive)", "-0.9% (inactive)", "-6.5% (inactive)"]

* * *

Target: Lethal factor (Bacillus anthracis)
Test: Lethal factor protease inhibitors, Bacillus anthracis, multiplex microsphere cleavage assay, validation set (AID 588461)
Conditions: flow cytometry, at 10 µM, active compounds read high
Observed Property: inhibition (%)
One number for each entry, in %.

// known answers, use as guide
1) CSc1ccc2c(c1)N(CCC1CCCCN1C)c1ccccc1S2 (stereo not given) = -7
2) CC(OC(=O)c1cc(=O)[nH]c2ccccc12)C(=O)c1ccccc1 (stereo not given) = -6.9
3) CCCN(CCC)S(=O)(=O)c1ccc(C(=O)O)cc1 = 0
4) Cc1nonc1CN(C)C(=O)c1ccc(OC2CCN(C(=O)c3cccnc3)CC2)cc1 = 10.7
5) Cc1ccc(-n2cc(CNCCN3CCOC3=O)c(-c3ccc(F)cc3)n2)cc1 = -7.8

Value sought for every listed molecule: inhibition.
1. CCOC(=O)c1c(C)oc2c1C(=O)c1ccccc1C2=O
2. CC(C)(C)c1ccc(/C=C/C(=O)N2CCCCC2)cc1
3. COc1cc2c(cc1OC)-c1cc(NC3CCCCCC3)nc(=O)n1CC2
4. NC(CO)C(=O)NNCc1ccc(O)c(O)c1O (stereo not given)
5. O=C1CN(O)C=C2N=c3ccccc3=C2N1c1ccc([N+](=O)[O-])cc1

-9.3
4.7
-7.4
-25.4
-4.4
